# experimental system: T1, human Bfl-1 (c-myc-tagged) (human, UniProt Q16548 1-151, limits assumed)
# T1 construct: c-myc-tagged in the fluorescence polarization and yeast-display assays; also called c-myc-Bfl-1; Myc-tagged Bfl-1; not shown: c-myc tag
# T1 sequence (looked up): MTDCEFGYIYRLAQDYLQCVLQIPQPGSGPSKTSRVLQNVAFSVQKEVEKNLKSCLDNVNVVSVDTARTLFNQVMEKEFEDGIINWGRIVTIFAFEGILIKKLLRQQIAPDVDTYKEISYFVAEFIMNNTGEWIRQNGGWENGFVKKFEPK
# test description: competition fluorescence anisotropy against fluoresceinated Bim BH3
measured attribute: pKi
Reminder that pKi is minus the log10 of a molar concentration.

In: Query: pKi; subject: Ac-QWVREIAAGLRLAADNVNAQLER-NH2 [FS1]
Out: 7.82
